Test: qHTS for Inhibitors of PI5P4K: ADP-Glo counter assay
Conditions: ADP-Glo detection counter-screen, luciferase luminescence, no enzyme; series mostly up to 76.9 µM
Description: In addition to finding PI5P, we discovered the type II phosphatidylinositol 5-phosphate 4-kinase (PI5P4K) family (alpha, beta, gamma isoforms) that catalyze the conversion of PI5P to PI(4,5)P2. […] Two micoliter of assay buffer (0.038 M HEPES pH 7.4, 0.28 mM EGTA, 0.1% CHAPS, 7.5% DMSO) was dispensed into Greiner white solid bottom 1536-well assay plates. […] Finally, luminescence signal was detected using the PerkinElmer ViewLux plate reader (30 sec exposure). […]
Hit rate of the full screen: of about 1,100 compounds, fewer than 10 were called active. These entries were drawn from the full list.
assay.endpoint: outcome

Look over these answered cases.
Cn1c(SCC(=O)Nc2ccc(Cl)cc2)nc(O)cc1=O    inactive
COc1ccc(S(=O)(=O)/N=C2\C=C(NS(=O)(=O)c3ccccc3)C(=O)c3ccccc32)cc1    inactive
COc1cc(=O)[nH]c(=O)n1C(=O)Cc1ccccc1    inactive
Cc1csc(=O)n1CCC(=O)OCC(=O)Nc1ccc(N2CCOCC2)cc1    inactive
O=C(CCNS(=O)(=O)c1ccc(Br)s1)NCc1ccccc1Cl    inactive
CC(=O)N1c2ccc(S(=O)(=O)NCCC(=O)N(C)C3CCCCC3)cc2CC1C (configuration not stated)    inactive

Recorded result, O=C(Cc1cccs1)N(CC1CCCO1)C1(C(=O)NC2CCCCC2)CCCCC1 (configuration not stated) , outcome: inactive

The molecule CCOC(=O)C1Nc2ccc(C(F)(F)F)cc2C2C=CCC12 (configuration not stated) showed outcome equal to inactive

Record `COc1cccc(C(=O)Nc2nc3ccc(S(C)(=O)=O)cc3s2)c1` . Reported outcome: inactive

Measured outcome of COc1ccc(OCCCC(=O)Nc2nnc(C3CCCO3)s2)cc1 (configuration not stated) : inactive

outcome in this record for `OCCNc1nc(Nc2ccc(Cl)c(Cl)c2)nc2ccccc12` : inactive

# outcome of `O=C(c1cccnc1)N(c1cc2sc(=O)oc2c2ccccc12)S(=O)(=O)c1ccccc1` = inactive
